tested on: BDL-induced cholestasis hepatic fibrosis in rats; experiment: Bile duct ligation (BDL)-induced hepatic fibrosis in rats (biliary cirrhosis rat model); assay type: in vivo, SD rats; details: 50 μg/kg subcutaneous every two days, 14 days
Numbered stars: 1 amine (or outer) side, 2 acyl side, 3 side chain; on linkers, the order of the positions; unused ones are H or OH. Square brackets hold non-standard residues; d marks the D form. Primed or numbered codes have the meaning given here. Side chains are listed from the residue outwards. Ends that are not written are not given here. * marks the point of attachment. C18 diacid = O=C(O)CCCCCCCCCCCCCCCCC(=O)*; γGlu = O=C(O)[C@H](CCC(=O)[*:2])N[*:1]; Palmitoyl = CCCCCCCCCCCCCCCC(=O)*; Nle = CCCC[C@H](N)C(=O)O; PEG2′ = not defined here
endpoint: BDL-induced hepatic fibrosis and inflammation (HE, Sirius Red, IHC sections)

- substance: "His-(D-Ser)-Gln-Gly-Thr-Phe-Thr-Ser-Asp-Tyr-Ser-Lys-Tyr-Leu-Asp-Lys(PEG2-PEG2-γGlu-CO(CH2)14CH3)-Arg-Arg-Ala-Gln-Asp-Phe-Val-Gln-Trp-Leu-Leu-Asn-Thr-Gly-Gly-Pro-Ser-Ser-Gly-Ala-Pro-Pro-Pro-Ser-NH2 (H[dS]QGTFTSDYSKYLDK([PEG2′-PEG2′-γGlu-Palmitoyl])RRAQDFVQWLLNTGGPSSGAPPPS-NH2) [Compound 40]"
  value_observed: "significantly reduce"
- substance: "His-(D-Ser)-Gln-Gly-Thr-Phe-Thr-Ser-Asp-Tyr-Ser-Lys-Tyr-Leu-Asp-Lys(PEG2-PEG2-γGlu-CO(CH2)14CH3)-Arg-Arg-Ala-Gln-Asp-Phe-Val-Gln-Trp-Leu-Met-Asn-Thr-Gly-Gly-Pro-Ser-Ser-Gly-Ala-Pro-Pro-Pro-Ser-NH2 (H[dS]QGTFTSDYSKYLDK([PEG2′-PEG2′-γGlu-Palmitoyl])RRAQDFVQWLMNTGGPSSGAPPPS-NH2) [Compound 6]"
  value_observed: "significantly reduce"
- substance: "His-(D-Ser)-Gln-Gly-Thr-Phe-Thr-Ser-Asp-Tyr-Ser-Lys-Tyr-Leu-Asp-Lys(PEG2-PEG2-γGlu-CO(CH2)16CO2H)-Arg-Arg-Ala-Gln-Asp-Phe-Val-Gln-Trp-Leu-Nle-Asn-Thr-Gly-Gly-Pro-Ser-Ser-Gly-Ala-Pro-Pro-Pro-Ser-NH2 (H[dS]QGTFTSDYSKYLDK([PEG2′-PEG2′-γGlu-C18 diacid])RRAQDFVQWL[Nle]NTGGPSSGAPPPS-NH2) [Compound 38]"
  value_observed: "significantly reduce"
